- Tgt: T1, Human VEGFA165 (human, UniProt P15692-4 27-191)
- T1 construct: treated as the same molecule; also called antigen VEGFA
- Procedure Text: ELISA, VEGFA coated 0.3 µg/mL, anti-His detection
pEC50: −log10 of the molar value.
Parameter Measured: pEC50

# Binder, pEC50
data = [
    ("V40-3H-2m (VHH, Humanized V40) VHH: EVQLVESGGGLVQPGGSLRLSCAASGRTFSSYTMGWFRQAPGKEREFVVAISKGGYKYNAVSLEARFTISRDNSKNTVYLQMNSLRPEDTAVYYCAATRAYGSSRLRLAKTYEYWGQGTLVTVSS", 8.79),
    ("V15-2m (VHH, Humanized V15) VHH: EVQLVESGGGLVQPGGSLRLSCAASGRTFASYTMGWFRQAPGKEREFVVAISKGGYKYDSVSLEARFTISRDNSKNTVYLQMNSLRPEDTAVYYCAGTRAYGSSRLRLAETYEYWGQGTLVTVSS", 8.69),
    ("V40-4H-4m (VHH, Humanized V40) VHH: EVQLVESGGGLVQPGGSLRLSCAASGRTFTSYTMGWFRQAPGKEREFVVAISKGGYKYNAVSLEARFTISRDNAKNTVYLQMNSLRPEDTAVYYCASTRAYGSSRLRLAKTYEYWGQGTLVTVSS", 8.63),
]
